List of cytotoxicity at 70.5 h values.
experiment: Human HepG2 cell viability assay in 384 well format; assay type: toxicity, cell-based; set-up: dose 125 nL, time 70.5 hour; concentration not given beside the values; conditions: HepG2 cells, read-out: Inhibition
Provide the reading as a plain figure in %.

Answered cases to consult:
# Compound, Unit Abbrev, cytotoxicity at 70.5 h
data = [
    ("CCN(CC)S(=O)(=O)c1ccc(C(=O)NC(C)(C#N)C2CC2)cc1 (stereo not drawn)", "%", 19.1),
    ("COCCc1noc(CN2CCN(c3ccc(OC)cc3)C(=O)C2C)n1 (stereo not drawn)", "%", -15.8),
    ("Cc1cccc(CN2CCC3(CCCN(C(=O)N(C)C)C3)C2=O)n1 (stereo not drawn)", "%", -3.06),
    ("N#Cc1ccc(SCCCO)c(F)c1", "%", -5.69),
]

Looking up "COc1cc(C(=O)NCCCO)cc2occc12" , I found its cytotoxicity at 70.5 h recorded as -9.45

Notebook: CC(C)n1cc(S(=O)(=O)N2CCCC(N3CCCCC3)C2)cn1 (stereo not drawn) , cytotoxicity at 70.5 h read as -16.1

Per the record, O=C1CC2(CCN(C(=O)Cc3cc4c(cc3Cl)OCCO4)C2)C(=O)N1 (stereo not drawn) has cytotoxicity at 70.5 h of -5.25

Please fill in: cytotoxicity at 70.5 h reported for "CS(=O)(=O)NCc1cn2c(n1)CN(Cc1cccnc1)CC2" = 9.87

Just so you know, measured cytotoxicity at 70.5 h for "Cc1occc1C(=O)N1CCC2(CCN(Cc3nccs3)CC2)C1" came out at -5.43

cytotoxicity at 70.5 h reported for this compound "COc1ccc(C(=O)N2C[C@@H](C(=O)O)[C@H](c3cccc(F)c3)C2)c(O)c1" : 5.73

Record "COc1cccc(-c2n[nH]cc2-c2nc(CC3CCN(C)CC3)no2)c1" . Reported cytotoxicity at 70.5 h: -6.75

Reported cytotoxicity at 70.5 h for "Cn1c(N2CCOCC2)nc2cc(C(=O)N[C@@H]3CC[C@@H](N)C3)ccc21" was -5.03

Record CC(Cc1ccccc1Br)NC(=O)CCS(C)(=O)=O (stereo not drawn) , field cytotoxicity at 70.5 h: 27.4

Query "Cc1ccc(CCN2C(=O)CC[C@H]3CN(Cc4cnn(C)c4)CC[C@H]32)o1" yields cytotoxicity at 70.5 h of -0.704

The compound listed as "O=C(O)[C@]12CCCN(Cc3ccccn3)[C@@H]1CCN(c1cnccn1)C2" has a reported cytotoxicity at 70.5 h of -3.65

Entry "CCN(Cc1nc(C2CC2)no1)Cc1ccc(C#N)cc1F" ; cytotoxicity at 70.5 h = -3.69

// cytotoxicity at 70.5 h lookup, compound = CC(NC(=O)NCCCn1cncn1)c1ccccc1F (stereo not drawn) , result: -4.63

For reference, reported cytotoxicity at 70.5 h for "NC(=O)c1nnn(-c2ccc(Br)cc2)n1" stands at 33.2
